Test system: aobiyu (slender amaranth, Amaranthus viridis)
Experiment: Experiment 5 foliage treatment: aobiyu
Type: in vivo
Design: key: 5: completely killed; 4: seriously injured; 3: considerably injured; 2: somewhat injured; 1: slightly injured; 0: not injured (normally grown)
Settings: 40 g/10a, foliage spray of wettable powder suspension, evaluated 4 weeks after treatment
This section presents compounds with their documented Herbicidal Effect aobiyu values.
Answer with a number only.

For record "CCCCOC(=O)c1cc(N(C(=O)C2=C(C(=O)OC)CCCC2)C(=O)c2cccnc2)c(F)cc1Cl" the listed Herbicidal Effect aobiyu is 5

* * *

Test system: cockspur (Panicum crus-galli)
Assay: Experiment 2 foliage treatment: cockspur
Assay type: in vivo
Set-up: key: 5: completely killed; 4: seriously injured; 3: considerably injured; 2: somewhat injured; 1: slightly injured; 0: not injured (normally grown)
Conditions: 40 g/10a, 4 weeks after treatment
Measurement type: Herbicidal Effect cockspur
Answer with a number only.

Completed entries (count: 3):
>  <Molecule>
CCC(=O)Nc1ccc(Cl)c(Cl)c1 [Comparative agentB, Propanil, reference compound]

>  <Herbicidal Effect cockspur>
0

$$$$
>  <Molecule>
CCCCCOC(=O)C1=C(C(=O)N(C(=O)CC)c2cc(SCC(=O)OC)c(Cl)cc2F)CCCC1 [compound 17]

>  <Herbicidal Effect cockspur>
2

$$$$
>  <Molecule>
CCCCOC(=O)C1=C(C(=O)N(C(C)=O)c2cc(SCC(=O)OCC)c(Cl)cc2F)CCCC1 [compound 39]

>  <Herbicidal Effect cockspur>
1

$$$$

For record CCOC(=O)C1=C(C(=O)N(C(=O)CC)c2cc(SCC(=O)OC)c(Cl)cc2F)CCCC1 [compound 33] the listed Herbicidal Effect cockspur is 1

* * *

System: hotarui (bulrush, Scirpus juncoides)
Test: Experiment 1 flooded soil treatment: hotarui
Type: in vivo
Parameters: key: 5: completely killed; 4: seriously injured; 3: considerably injured; 2: somewhat injured; 1: slightly injured; 0: not injured (normally grown)
Settings: 25 g/10a, 4 weeks after treatment
Measurement type: Herbicidal Effect hotarui
Answer with a number only.

For record COC(=O)C1=C(C(=O)N(C(C)=O)c2cc(SC(C)C(=O)OC)c(Cl)cc2F)CCCC1 (stereo not shown) the listed Herbicidal Effect hotarui is 5

For record "CCC(=O)N(C(=O)C1=C(C(=O)OC)CCCC1)c1cc(SCC(=O)OC)c(Cl)cc1F" the listed Herbicidal Effect hotarui is 5

For record "COC(=O)CSc1cc(N(C(=O)C2=C(C(=O)OC)CCCC2)C(=O)c2cccc(F)c2)c(F)cc1Cl" the listed Herbicidal Effect hotarui is 5

For record "CCCOC(=O)C1=C(C(=O)N(C(C)=O)c2cc(SCC(=O)OC)c(Cl)cc2F)CCCC1" the listed Herbicidal Effect hotarui is 4

For record "CCOC(=O)C1=C(C(=O)N(C(C)=O)c2cc(SCC(=O)OC)c(Cl)cc2F)CCCC1" the listed Herbicidal Effect hotarui is 5

For record "C#CCOC(=O)C1=C(C(=O)N(C(C)=O)c2cc(SCC(=O)OC)c(Cl)cc2F)CCCC1" the listed Herbicidal Effect hotarui is 4

For record "CCCCCOC(=O)C1=C(C(=O)N(C(=O)CC)c2cc(SCC(=O)OC)c(Cl)cc2F)CCCC1" the listed Herbicidal Effect hotarui is 5

* * *

This section presents molecules with their documented Herbicidal Effect mehishiba values.
Test system: mehishiba (henry crabgrass, Digitaria cliaris)
Assay: Experiment 5 foliage treatment: mehishiba
Assay type: in vivo
Conditions: 40 g/10a, foliage spray of wettable powder suspension, evaluated 4 weeks after treatment
Answer with a number only.

Completed entries (count: 10):
>  <Molecule>
C#CCOC(=O)C1=C(C(=O)N(C(=O)c2cccnc2)c2cc(OC(C)C#C)c(Cl)cc2F)CCCC1 (stereo not shown)

>  <Reading>
4.5

$$$$
>  <Molecule>
COCCOC(=O)C1=C(C(=O)N(C(=O)c2cccnc2)c2cc(C(=O)OC)c(Cl)cc2F)CCCC1

>  <Reading>
1

$$$$
>  <Molecule>
C#CC(C)Oc1cc(N(C(=O)C2=C(C(=O)OC)CCCC2)C(=O)c2cncc(C(=O)OC)c2)c(F)cc1Cl (stereo not shown)

>  <Reading>
1

$$$$
>  <Molecule>
C#CC(C)Oc1cc(N(C(=O)C2=C(C(=O)OCCC)CCCC2)C(=O)c2cccnc2)c(F)cc1Cl (stereo not shown)

>  <Reading>
1

$$$$
>  <Molecule>
C#CC(C)Oc1cc(N(C(=O)C2=C(C(=O)OC(C)C)CCCC2)C(=O)c2ccc(Cl)nc2)c(F)cc1Cl (stereo not shown)

>  <Reading>
1

$$$$
>  <Molecule>
C#CC(C)Oc1cc(N(C(=O)C2=C(C(=O)OCCOCC)CCCC2)C(=O)c2cccnc2)c(F)cc1Cl (stereo not shown)

>  <Reading>
4

$$$$
>  <Molecule>
COC(=O)C1=C(C(=O)N(C(=O)c2cccnc2)c2cc(C(=O)OC)c(Cl)cc2F)CCCC1

>  <Reading>
1

$$$$
>  <Molecule>
C#CC(C)Oc1cc(N(C(=O)C2=C(C(=O)OCCCC)CCCC2)C(=O)c2cccnc2)c(F)cc1Cl (stereo not shown)

>  <Reading>
1

$$$$
>  <Molecule>
CCCCOC(=O)c1cc(N(C(=O)C2=C(C(=O)OC)CCCC2)C(=O)c2cccnc2)c(F)cc1Cl

>  <Reading>
1

$$$$
>  <Molecule>
C#CC(C)Oc1cc(N(C(=O)C2=C(C(=O)OC)CCCC2)C(=O)c2cccnc2)c(Cl)cc1Cl (stereo not shown)

>  <Reading>
2

$$$$

For record "COC(=O)CSc1cc(N(C(=O)C2=C(C(=O)OC)CCCC2)C(=O)c2cccnc2)c(F)cc1Cl" the listed Herbicidal Effect mehishiba is 1

For record C#CC(C)Oc1cc(N(C(=O)C2=C(C(=O)OC3CCCC3)CCCC2)C(=O)c2cccnc2)c(F)cc1Cl (stereo not shown) the listed Herbicidal Effect mehishiba is 1

For record C#CC(C)Oc1cc(N(C(=O)C2=C(C(=O)OCCOC)CCCC2)C(=O)c2cccnc2)c(Cl)cc1Cl (stereo not shown) the listed Herbicidal Effect mehishiba is 2

For record CCC(=O)Nc1ccc(Cl)c(Cl)c1 [Comparative agentB, Propanil, reference compound] the listed Herbicidal Effect mehishiba is 1

For record C#CC(C)Oc1cc(N(C(=O)C2=C(C(=O)OCCOC)CCCC2)C(=O)c2ccc(Cl)nc2)c(F)cc1Cl (stereo not shown) the listed Herbicidal Effect mehishiba is 2

For record "COC(=O)C1=C(C(=O)N(C(=O)c2cccnc2)c2cc(OC(C)C)c(Cl)cc2F)CCCC1" the listed Herbicidal Effect mehishiba is 1

* * *

Tested on: rice
Experiment: Experiment 8 foliage treatment: rice
Type: in vivo
Design: key: 5: completely killed; 4: seriously injured; 3: considerably injured; 2: somewhat injured; 1: slightly injured; 0: not injured (normally grown)
Conditions: 40 g/10a, foliage spray of wettable powder suspension, evaluated 4 weeks after treatment
This section presents compounds with their documented Herbicidal Effect rice values.
Answer with a number only.

Completed entries (count: 3):
>  <Compound>
COC(=O)C1=C(C(=O)N(C(=O)c2cccs2)c2cc(OC3CCCC3)c(Cl)cc2F)CCCC1 [compound 98]

>  <Herbicidal Effect rice>
1

$$$$
>  <Compound>
C#CC(C)Oc1cc(N(C(=O)C2=C(C(=O)OC)CCCC2)C(=O)c2sccc2C)c(F)cc1Cl (stereo not shown) [compound 95]

>  <Herbicidal Effect rice>
1

$$$$
>  <Compound>
C#CC(C)Oc1cc(N(C(=O)C2=C(C(=O)OC)CCCC2)C(=O)c2ccsc2)c(F)cc1Cl (stereo not shown) [Compound No. 100]

>  <Herbicidal Effect rice>
1

$$$$

Shift focus to the following entry.
For record C#CC(C)Oc1cc(N(C(=O)C2=C(C(=O)OCCCC)CCCC2)C(=O)c2ccsc2)c(F)cc1Cl (stereo not shown) [compound 102] the listed Herbicidal Effect rice is 1

* * *

This section presents molecules with their documented Herbicidal Effect rice values.
Tested on: rice
Test: Experiment 2 foliage treatment: rice
Format: in vivo
Design: key: 5: completely killed; 4: seriously injured; 3: considerably injured; 2: somewhat injured; 1: slightly injured; 0: not injured (normally grown)
Conditions: 80 g/10a, 4 weeks after treatment
Answer with a number only.

Completed entries (count: 3):
>  <Molecule>
CCC(=O)Nc1ccc(Cl)c(Cl)c1 [Comparative agentB, Propanil, reference compound]

>  <Reading>
0

$$$$
>  <Molecule>
CCCCOC(=O)C1=C(C(=O)N(C(=O)CC)c2cc(SCC(=O)OC)c(Cl)cc2F)CCCC1

>  <Reading>
1

$$$$
>  <Molecule>
COC(=O)CSc1cc(N(C(=O)C2=C(C(=O)OC)CCCC2)C(=O)c2cccc(F)c2)c(F)cc1Cl

>  <Reading>
1

$$$$

Shift focus to the following entry.
For record "C#CCOC(=O)C1=C(C(=O)N(C(C)=O)c2cc(SCC(=O)OC)c(Cl)cc2F)CCCC1" the listed Herbicidal Effect rice is 1

* * *

This section presents compounds with their documented Injury of Paddy values.
Tested on: paddy rice
Assay: Experiment 7 flooded soil treatment: injury to paddy rice
Type: in vivo
Conditions: 12.5 g/10a, evaluated 4 weeks after treatment
Experimental: Paddy soil (clay loam) was put into a pot so as to have a surface area of 1/15500 ares. […] After that, the pots were kept in a glass chamber to allow the paddy rice and the weeds to grow, and after the lapse of 4 weeks from the treatment with the selected compounds, the herbicidal effects and the degree of injury to the paddy rice were evaluated. […]
Answer with a number only.

Completed entries (count: 5):
>  <Compound>
COC(=O)C1=C(C(=O)N(C(=O)c2cccs2)c2cc(OC3CCCC3)c(Cl)cc2F)CCCC1

>  <Reading>
0.5

$$$$
>  <Compound>
C#CC(C)Oc1cc(N(C(=O)C2=C(C(=O)OCCCC)CCCC2)C(=O)c2cccs2)c(F)cc1Cl (centres unmarked)

>  <Reading>
0.5

$$$$
>  <Compound>
C#CC(C)Oc1cc(N(C(=O)C2=C(C(=O)OCCOC)CCCC2)C(=O)c2cccs2)c(F)cc1Cl (centres unmarked)

>  <Reading>
0.5

$$$$
>  <Compound>
C#CC(C)Oc1cc(N(C(=O)C2=C(C(=O)OC)CCCC2)C(=O)c2ccsc2)c(F)cc1Cl (centres unmarked)

>  <Reading>
0.5

$$$$
>  <Compound>
C#CC(C)Oc1cc(N(C(=O)C2=C(C(=O)OC)CCCC2)C(=O)c2ccc(C)s2)c(F)cc1Cl (centres unmarked)

>  <Reading>
0.5

$$$$

For record "COC(=O)COc1cc(N(C(=O)C2=C(C(=O)OC)CCCC2)C(=O)c2cccs2)c(F)cc1Cl" the listed Injury of Paddy is 0

For record C#CC(C)Oc1cc(N(C(=O)C2=C(C(=O)OCCC)CCCC2)C(=O)c2ccsc2)c(F)cc1Cl (centres unmarked) the listed Injury of Paddy is 1

For record C#CC(C)Oc1cc(N(C(=O)C2=C(C(=O)OC)CCCC2)C(=O)c2ccc(Cl)s2)c(F)cc1Cl (centres unmarked) the listed Injury of Paddy is 0

Hello, the source for this data is patent US6337417B1, in case you need it.
